Test system: SF-539
Test Protocol: NCI tumour cell line growth inhibition, 48 h
Activity calls are given as the source filed them. Cut-off read from the data, not from the text of the source: active = GI50 up to about 1.1 µM and inactive = higher.
Metric: GI50

[[record]]
compound = "CC(C)=C1CCC(CN2CCOCC2)C1=O (stereo unspecified)"
metric = "GI50"
reported_value = "17.4 µM (inactive)"

[[record]]
compound = "Nc1ccc(C(=O)NN2C(=O)[C@H](Cl)C2c2ccc(Cl)cc2)cc1 (stereo partly specified)"
metric = "GI50"
reported_value = "1.79 µM (inactive)"


State recorded GI50 for all listed compounds.
1. CC1(C)CC(=O)C(=CNc2nc(-c3cccc([N+](=O)[O-])c3)cs2)C(=O)C1
2. COc1cc(/C=C2\[C@H]3c4c(c(OC)c(C)c(OC)c4OC)C[C@@H](C(=O)N2Cc2ccccc2)N3C(=O)OCC(C)C)c(OC)c(C)c1OC
3. CC(C)(C)OC(=O)N1CCC(C(=O)O)CC1
4. COc1cc(-c2cccs2)sc1-c1cccs1

**A:**
1. 20.8 µM (inactive)
2. > 100 µM (inactive)
3. > 100 µM (inactive)
4. 73.8 µM (inactive)

State recorded GI50 for all listed compounds.
1. Cc1cc(Cl)ccc1NC1=NC(=O)C(CC(=O)Nc2cccc(Cl)c2)S1 (stereo unspecified)
2. Cc1cc(C)nc(NS(=O)(=O)c2ccc(NNc3c4ccccc4nc4c(C(=O)Nc5ccc(S(=O)(=O)Nc6ncccn6)cc5)cccc34)cc2)n1
3. CN(C)CCNC(=O)c1cccc2[nH]c(-c3ccc(Cl)cc3)nc12
4. OC1(c2ccc3ccccc3c2)c2c(c3ccccc3c3ccccc23)C2=NCCN21 (stereo unspecified)
5. c1ccc(-c2cn3c(nc4ccccc43)c(-c3ccccc3)n2)cc1
6. N#Cc1ccccc1NC(=O)C(=O)C1NC(=S)NC1=O (stereo unspecified)

**A:**
77.6 µM (inactive)
27 µM (inactive)
4.65 µM (inactive)
5.45 µM (inactive)
27.9 µM (inactive)
> 100 µM (inactive)

###

Tested on: NCI-H460
Test Protocol: NCI tumour cell line growth inhibition, 48 h
Active and inactive are the calls of the source. Cut-off read from the data, not from the text of the source: active = GI50 up to about 1.1 µM and inactive = higher.
Outcome (select one): y for active, n for inactive

[[record]]
compound = "CSCCCS/C1=C/CCCCCCCCCC1"
subject_of_test = "NCI-H460"
class_name = "n"


**Q:** Which outcome was assigned to COC1C(OC(C)=O)CC(=O)OC(C)C/C=C/C=C\C(O)C(C)CC(CC=O)C1OC1OC(C)C(OC2CC(C)(O)C(OC(=O)CC(C)C)C(C)O2)C(N(C)C)C1O (stereo unspecified) in this test?
**A:** n

**Q:** Which outcome was assigned to O=C1CSC(c2c(O)ccc3ccccc23)N1n1c(S)nnc(/C=C/c2c(O)ccc3ccccc23)c1=O (stereo unspecified) in this test?
**A:** y

**Q:** Which outcome was assigned to COc1cc(Br)c(CC2(C#N)c3ccccc3C3C(N2C(=O)c2ccccc2)C3(Cl)Cl)cc1OC (stereo unspecified) in this test?
**A:** n

**Q:** Which outcome was assigned to "O=C(O)/C=C\C(=O)Nn1c(Cc2ccc(Cl)cc2)n[nH]c1=O" in this test?
**A:** n

**Q:** Which outcome was assigned to "Nc1c(O)c(C(=O)O)cc2ccccc12" in this test?
**A:** n

**Q:** Which outcome was assigned to "Nc1c(Br)cc(-c2nc3ccccc3s2)cc1Br" in this test?
**A:** n

###

Test system: CCRF-CEM
Test Protocol: NCI tumour cell line growth inhibition, 48 h
Activity calls are given as the source filed them. No stated cut-off is given here; in the data, active = GI50 up to about 1.1 µM and inactive = higher.
Outcome (select one): yes for active, no for inactive

[[record]]
compound = "CCCC(=O)N/S(=N/S(=O)(=O)c1ccc(Cl)cc1)C(Cl)(Cl)Cl (stereo not given)"
class_name = "no"

[[record]]
compound = "C=C1C(=O)O[C@@H]2C[C@@H](C)[C@@H]3C=CC(=O)[C@@]3(C)[C@@H](O)[C@H]12"
class_name = "yes"


**Q:** Which outcome was assigned to "Fc1ccc(C(=C2CCN(CCc3ccc4[nH]c(=S)[nH]c4c3)CC2)c2ccc(F)cc2)cc1" in this test?
**A:** no

**Q:** Which outcome was assigned to "CC(=O)OCCCCn1cc(Cn2ccc(=O)n(Cc3cn(CCCCOC(C)=O)nn3)c2=O)nn1" in this test?
**A:** no

**Q:** Which outcome was assigned to CC(=O)OCC(C)C1=C(OC(C)=O)C(=O)C2(C)C/C=C(/C)CC/C=C(\C)CCC(OC(C)=O)C(C)CCC12 (stereo not given) in this test?
**A:** no

**Q:** Which outcome was assigned to "O=C(/C=C/c1cccs1)c1ccc(Cl)s1" in this test?
**A:** no

**Q:** Which outcome was assigned to "CC(=O)OCc1cc(OC(C)=O)c2cc3c(OC(C)=O)cccc3c(OC(C)=O)c2c1" in this test?
**A:** no

###

Tested on: DU-145
Test Protocol: NCI tumour cell line growth inhibition, 48 h
Active and inactive are the calls of the source. Rule as the data show it: active = GI50 up to about 1.1 µM and inactive = higher.
Metric: GI50

[[record]]
compound = "O=C(CCc1ccccc1)On1c(-c2ccccc2)nc2ccccc2c1=S"
reported_value = "9.71 µM (inactive)"

[[record]]
compound = "CCOC(=O)Cc1cc(=O)[nH]c(-n2[nH]c(C)c(CCO)c2=O)n1"
reported_value = "> 100 µM (inactive)"

[[record]]
compound = "CC(N/N=N/c1ccc(-c2nc3ccccc3[nH]2)cc1)C(=O)O (centres undefined)"
reported_value = "49.4 µM (inactive)"

[[record]]
compound = "Cc1c(N=C(S)Nc2ccc(Cl)cc2)c(=O)n(-c2ccccc2)n1C"
reported_value = "> 100 µM (inactive)"

[[record]]
compound = "C=C1CC2(CC(c3ccccc3OC)OC(c3ccccc3OC)C2)OC1=O (centres undefined)"
reported_value = "7.8 µM (inactive)"


State recorded GI50 for all listed compounds.
1. Cc1cc(=O)nc(Sc2ccc([N+](=O)[O-])cc2[N+](=O)[O-])[nH]1
2. O=C1C(Br)=C(C2=CC(=P(c3ccccc3)(c3ccccc3)c3ccccc3)C=C2)C(=O)C(Br)=C1C1=CC(=P(c2ccccc2)(c2ccccc2)c2ccccc2)C=C1

**A:**
17.2 µM (inactive)
> 100 µM (inactive)

State recorded GI50 for all listed compounds.
1. CC1=C(C(N)=O)C(c2ccncc2)C(C#N)=C2SCC(=O)N12 (centres undefined)
2. CCCCCCCCCC/C=C/CC(=O)SCCNC(=O)CCNC(=O)[C@@H](O)C(C)(C)COP(=O)(O)OP(=O)(O)OCC1OC(n2cnc3c(N)ncnc32)C(O)C1OP(=O)(O)O (some centres undefined)

**A:**
> 100 µM (inactive)
> 10 µM (inactive)

###

Test system: PC-3
Test Protocol: NCI tumour cell line growth inhibition, 48 h
The source made the active and inactive calls. Rule as the data show it: active = GI50 up to about 1.1 µM and inactive = higher. Where a SMILES comes first, the peptide text is derived from it. The star is where a group is joined. ONb = O=[N+]([O-])c1ccc(CO*)cc1; Boc = CC(C)(C)OC(=O)*
For each entry below, report its GI50 value.

[[record]]
molecule = "COC(=O)c1c(O)ccc2c1c1c(n2Cc2cccc(C)c2)C(=O)c2ccccc2C1=O"
subject_of_test = "PC-3"
metric = "GI50"
reported_value = "11 µM (inactive)"


State recorded GI50 for all listed molecules.
1. C[n+]1c(Cl)cn2c3nc4ccccc4nc3c([O-])c(C#N)c21
2. Cc1cc(O)c2c(c1)C(=O)C(c1c(C)cc3c(c1O)C(=O)C1OC1C3=O)=CC2=O (configuration not stated)

**A:**
1: > 100 µM (inactive); 2: 12.5 µM (inactive)

State recorded GI50 for all listed molecules.
1. Cc1c(N=C(S)Nc2ccc(Cl)cc2)c(=O)n(-c2ccccc2)n1C
2. C[C@H](CCC(=O)O[C@@H]1CC[C@@]2(C)C(CC[C@H]3[C@@H]4CC[C@H]([C@H](C)CCc5nc6ccccc6[nH]5)[C@@]4(C)CC[C@@H]32)C1)[C@H]1CC[C@H]2[C@@H]3CCC4C[C@H](O)CC[C@]4(C)[C@H]3CC[C@]12C (some centres not stated)
3. O=S1(=O)OCCOS(=O)(=O)C1Cc1nc2ccccc2[nH]1

**A:**
1. > 100 µM (inactive)
2. > 100 µM (inactive)
3. 19.6 µM (inactive)

State recorded GI50 for all listed molecules.
1. CC(C)=CCCC(C)C1=C(O)C(=O)C(C)=CC1=O (configuration not stated)
2. O=[N+]([O-])c1ccc(S(=O)(=O)n2c3ccc(Br)cc3c3nc4ccccc4nc32)cc1
3. COc1ccc(C2N(c3ccc(C)c(N=C=O)c3)C(=O)N3C(c4ccc(OC)cc4)N(c4ccc(C)c(N=C=O)c4)C(=O)N23)cc1 (configuration not stated)
4. CCCCn1c(C)c(C)c2c1NN=C(C#N)S2(=O)=O

**A:**
17.4 µM (inactive)
> 100 µM (inactive)
> 100 µM (inactive)
> 100 µM (inactive)

State recorded GI50 for all listed molecules.
1. CC(C)CC(NC(=O)OC(C)(C)C)C(=O)NC(CCC(=O)OCc1ccc([N+](=O)[O-])cc1)C(=O)OCc1ccc([N+](=O)[O-])cc1 (stereo not drawn) (Boc-Leu-Glu(ONb)-ONb; configuration not given here)
2. Nc1ccc(C(=O)NN2C(=O)[C@H](Cl)C2c2ccc(Cl)cc2)cc1 (some centres not stated)
3. CC(C)(Oc1ccc(Cl)cc1)C(=O)N(C(=O)N1CCN(c2ccccc2)CC1)c1ccccc1
4. CC(=O)C1C(=O)C(=O)N(c2ccccc2)C1=O (configuration not stated)
5. Cc1ccc(NC(=O)CC(=O)N2N=C(c3ccccc3)C(/N=N/c3ccc(S(=O)(=O)CCOS(=O)(=O)O)cc3)C2=O)cc1 (configuration not stated)
6. C=C1CC2(CC(c3ccccc3OC)OC(c3ccccc3OC)C2)OC1=O (configuration not stated)

**A:**
27.9 µM (inactive)
1.6 µM (inactive)
4.78 µM (inactive)
> 100 µM (inactive)
> 100 µM (inactive)
2.06 µM (inactive)

**Q:** Any idea what GI50 was measured for "CN(C)CCn1c2c(c3ccccc31)CCc1ccccc1-2" ?
**A:** 11.4 µM (inactive)

Values were extracted from ChEMBL document CHEMBL1201862.
